Biological target: T1, human TNFR2 (human, UniProt P20333 23-461)
T1 construct: expressed on the surface of CHO cells; also called HuTNFR2; TNFRSF1B
T1 sequence: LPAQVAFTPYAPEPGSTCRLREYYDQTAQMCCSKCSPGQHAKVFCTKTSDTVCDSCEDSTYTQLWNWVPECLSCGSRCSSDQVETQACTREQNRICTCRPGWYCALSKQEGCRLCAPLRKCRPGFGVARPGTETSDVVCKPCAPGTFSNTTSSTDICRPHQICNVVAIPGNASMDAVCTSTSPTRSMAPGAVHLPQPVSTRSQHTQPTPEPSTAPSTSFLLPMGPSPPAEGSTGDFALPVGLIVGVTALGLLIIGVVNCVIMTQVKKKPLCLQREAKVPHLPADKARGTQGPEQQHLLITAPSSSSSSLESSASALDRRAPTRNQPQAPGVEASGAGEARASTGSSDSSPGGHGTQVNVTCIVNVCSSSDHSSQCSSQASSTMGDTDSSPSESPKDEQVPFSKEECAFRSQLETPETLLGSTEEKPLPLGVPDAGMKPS
Assay: binding to human TNFR2 CHO cells

# binder, binding result
records = [
    ("IgG 1980 (antibody, name in Kabat numbering, V domains shown, IgG) VH: QVQLVQSGAEVKKPGASVKVSCKVSGFSFPSSGVDWVRQAPGQGLEWLGVTRGEGSTHYNQKFQGRVTITKDTSKSTVYMELSSLRSEDTAVYYCASGEQDEGFVYWGQGTLVTVSS VL: DIQLTQSPSFLSASVGDRVTITCKASQNVGTAVAWYQQKPGKAPKLLIYAASTLQSGVPSRFSGSGSGTEFTLTISSLQPEDFATYYCQQYNSYPFGGGTKVEIKR", "no binding"),
    ("IgG 2002 (antibody, name in Kabat numbering, V domains shown, IgG) VH: QVQLVQSGAEVKKPGASVKVSCKVSGFSFPSSGVDWVRQAPGQGLEWLGVTFQEGSTHYNQKFQGRVTITKDTSKSTVYMELSSLRSEDTAVYYCASGEHDEGFVYWGQGTLVTVSS VL: DIQLTQSPSFLSASVGDRVTITCKASQNVGTAVAWYQQKPGKAPKLLIYAASTLQSGVPSRFSGSGSGTEFTLTISSLQPEDFATYYCQQYYSTPFGGGTKVEIKR", "no binding"),
    ("IgG 2050 (antibody, name in Kabat numbering, V domains shown, IgG) VH: QVQLVQSGAEVKKPGASVKVSCKVSGFSFPSSGVDWVRQAPGQGLEWLGVTHGSGSTHYNQKFQGRVTITKDTSKSTVYMELSSLRSEDTAVYYCASGEHDEGFVYWGQGTLVTVSS VL: DIQLTQSPSFLSASVGDRVTITCKASQNVGTAVAWYQQKPGKAPKLLIYAASTLQSGVPSRFSGSGSGTEFTLTISSLQPEDFATYYCLQYSSYPLTFGGGTKVEIKR", "no binding"),
]

Where these numbers come from: patent US20230406951A1
